- measured-on: Gal(a1-3)Gal(b1-3)GlcNAc(b1-6)GalNAc
- method-notes: glycan array binding signal (z-score within array); higher = stronger binding
- condition-description: glycan notation: IUPAC condensed, linker removed
Only a selection was taken, and the strongest signals are over-represented in it overall.
endpoint-label: glycan array binding signal (z-score)
Answers are plain numbers.

Recorded results for 2 binders are shown here.
The recorded glycan array binding signal (z-score) for Pwp5 ND (Candida glabrata) (protein) MGSSHHHHHHSSGLVPRGSHMASANPVPLTNVCYFPEEYPRQAGFRAITAGLASTILQGSVDELLNYSGLSSLTTQQTTTTTPNFQLPTLPLPTNVYGLTVVPLYLLVQLQGYFVPPVSGQYTFSLENTNDAAIIFFGNPSAFPCGDLSAWPQASADDITVTDGTFPSRTLFLKAGVAYPMRISYYNSLGSGNLAVSFTDPGGTKRTNWNGYIWRYNSCSTCTYT is -0.579

Record Epa12 (Candida glabrata) (protein) MGSSHHHHHHSSGLVPRGSHMLEPDNSLQIFDSFLSNPSKYPLGCSPKITNPKKGLSMELYSYPYRKKGSHPCWDPAYLDPNFPRVGYKKNKLIARVDGVSGDINFNFHPKRQCTPIADYLPPNFNYNEPITTTNFTMLLYGYFKPKVTGLHTFDISADDLLFMNFGAGNAFDCCRRDSTADTFGNYVAWAIWGRRIVRNKLTVRLDKGIYYPLRLFFNNRDYYGQMRLTFKTEHGSERITDFSDYFFSVDDTSEGCPGLITYESECADVKSSTVLETDYITIQAEKE , field glycan array binding signal (z-score): 4.44

Turning to the following binder.
Input Na-CTL-1 (Necator americanus) (protein) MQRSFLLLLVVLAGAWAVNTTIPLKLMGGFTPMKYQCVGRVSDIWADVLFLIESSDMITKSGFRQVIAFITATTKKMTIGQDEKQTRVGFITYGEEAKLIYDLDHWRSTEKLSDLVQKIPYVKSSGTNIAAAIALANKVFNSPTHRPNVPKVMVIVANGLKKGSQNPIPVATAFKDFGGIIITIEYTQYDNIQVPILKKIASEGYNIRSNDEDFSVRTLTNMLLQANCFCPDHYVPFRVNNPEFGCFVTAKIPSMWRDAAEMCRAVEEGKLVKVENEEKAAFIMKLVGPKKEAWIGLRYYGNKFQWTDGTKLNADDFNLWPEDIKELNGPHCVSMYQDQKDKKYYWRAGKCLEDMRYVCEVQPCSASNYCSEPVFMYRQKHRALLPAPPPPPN . Output glycan array binding signal (z-score): -0.267
